// data source = patent US20220298237A1

TARGET OR TEST SYSTEM: T1, oligopeptide ATYPSGHL (SEQ ID NO: 102)
T1 construct: Synthetic peptide, part of Loop C of AQP3
T1 peptide: ATYPSGHL
ASSAY INFO: ELISA on coated peptide
Measured binding signal (plate reader) of individual entries
API note: the answer field is a bare number with no unit suffix.

Here's what some known entries look like.
- BINDER: "Antibody J (antibody, mouse IgG2a, kappa, V domains shown, also called anti AQP3 antibody J) VH: QVHLQQSGTELVKPGASVKLSCEASGYTFTSYWMHWVKQRPGQGLEWIGNINPSNGGTNYNEKFKSKATLTVDKSSSTAYMQLSSLTSEDSAVYYCARGGIYYGNYDYYAMDYWGQGTSVTVSS VL: DIVMTQAAPSVPVTPGESVSISCRSSKSLLHSNGNTYLYWFLQRPGQSPQLLIYRVSNLASGVPDRFSGSGSGTAFTLRISRVEAEDVGVYYCMQHLEYPFTFGGGTKLEIKR"
  binding signal (plate reader): 0.044
- BINDER: "Antibody C (antibody, mouse IgG2a, kappa, V domains shown, also called anti AQP3 antibody C) VH: QVQLKQSGAELARPGASVKLSCKASGYNFKSYGISWVKQRTGQGLEWIGEIYPGSGNTYYNEKLKGKATLTADKSSSTAYMELRSLTSEDSAVYFCARTYGYDSFPWFAYWGQGTLVTVSS VL: DIVMTQAAPSVPVTPGESVSISCRSSKSLLHSNGNTYLYWFLQRPGQSPQLLIYRVSNLASGVPDRFSGSGSGTAFTLRISRVEAEDEGVYYCMQHLEYPFTFGAGTKLEIKR"
  binding signal (plate reader): 1.69
- BINDER: "BC-B10 (IgG) (antibody, V domains shown, also called anti AQP3 antibody BC-B10) VH: QSVEESGGRLVTPGAPLTLTCTVSRFSLSSYAMTWVRQAPGKGLEWIGIINNDVISSTWYASWVKGRFTISKTSTTMELKMTSLTTEDTATYFCARGGTSGYDIWGPGTLVTVSS VL: AIKMTQTPSPVSAAVGGTVTINCQSSPSVYKNYLSWYQQKPGQPPKLLIYGASTLASGVPSRFKGSGSGTQFTLTISDVQCDDAATYYCAGGYIGSRDIFSFGGGTEVVVK"
  binding signal (plate reader): 4

// next entry
// binding signal (plate reader) value for SC-F8 (IgG) (antibody, V domains shown, also called anti AQP3 antibody SC-F8) VH: QTVKESGGRLVTPGGSLTLTCTVSRFSLSNYAMTWVRQAPGKGLEWIGIINNDGISSTWYASWVKGRFTISKTSTTMDLKMTSLTTEDTATYFCARGGTSGYDIWGPGTLVTVSL VL: AQVLTQTPSPVSAAVGGTVTINCQSSPSVYKNYLSWYQQKPGQPPKLLIYGASTLASGVPSRFKGSGSGTQFTLTISDVQCDDAATYYCAGGYRGSSDIFAFGGGTEVVVK : 3.99
